- measured-on: human 5-HT4(a) (Homo sapiens)
- experiment-summary: Evaluation of agonistic activity in CHO-K1 cells expressing human 5-HT4(a) (GeneBIAzer HTR4-CRE-bla CHO-K1 cells, beta-lactamase fluorescence ratio, EC50 from 8 concentrations)
pEC50: −log10 of the molar value.
measurement-label: pEC50

Worked cases, answers included:
{"compound": "CCCc1cc(N2CCCCC2CCO)nc(Nc2ccc(N)c(C(F)(F)F)c2)n1 (centres unmarked)", "recorded-value": 10.46}
{"compound": "CCCCc1cc(N2CCC[C@@H](NC(C)=O)C2)nc(Nc2ccc(N)c(C(F)(F)F)c2)n1", "recorded-value": 11.08}
{"compound": "CCCc1cc(N2CCC[C@@H](NC)C2)nc(Nc2ccc(C)c(C#N)c2)n1", "recorded-value": 11.08}
{"compound": "CCCCc1cc(N2CCC[C@@H](NC(C)=O)C2)nc(Nc2ccc(C)c([N+](=O)[O-])c2)n1", "recorded-value": 11.05}
{"compound": "CCCc1cc(N2CCNC[C@H]2C)nc(Nc2ccc(F)c([N+](=O)[O-])c2)n1", "recorded-value": 10.03}

a: CCCc1cc(N2CCC[C@@H](NC(=O)CO)C2)nc(Nc2cc(N)cc(C#N)c2)n1
b: CCCc1cc(N2CCCC3CCCCC32)nc(Nc2ccc3cc[nH]c3c2)n1 (centres unmarked)
Identify the item whose pEC50 is the smaller number: a or b The response must carry the label of the picked entry.
b
(b: 9.62, a: 10.80)

---

- measured-on: human 5-HT4(a) (Homo sapiens, UniProt Q13639)
- Sequence (Q13639 1-387 isoform Q13639-2): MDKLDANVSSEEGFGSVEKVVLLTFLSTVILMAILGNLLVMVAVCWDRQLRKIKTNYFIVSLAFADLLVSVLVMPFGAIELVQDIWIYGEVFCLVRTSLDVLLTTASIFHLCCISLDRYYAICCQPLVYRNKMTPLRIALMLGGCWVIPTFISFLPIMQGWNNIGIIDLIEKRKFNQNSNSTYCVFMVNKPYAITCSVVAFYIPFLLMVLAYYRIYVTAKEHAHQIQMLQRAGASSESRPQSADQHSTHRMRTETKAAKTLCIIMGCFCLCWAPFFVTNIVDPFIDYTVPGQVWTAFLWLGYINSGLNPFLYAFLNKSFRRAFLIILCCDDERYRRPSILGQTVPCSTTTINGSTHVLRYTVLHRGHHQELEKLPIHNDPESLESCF
- experiment-summary: Evaluation of agonistic activity in CHO-K1 cells expressing human 5-HT4(a) (GeneBIAzer HTR4-CRE-bla CHO-K1 cells, beta-lactamase fluorescence ratio, EC50 from 8 concentrations)
- Procedure: Evaluation of Agonistic Activity in CHO-K1 Cells Expressing Human 5-HT4(a) As CHO-K1 cells stably expressing human 5-HT4(a), we used the GeneBIAzer HTR4-CRE-bla CHO-K1 cells (Invitrogen Corp.). […] Agonistic activities on 5-HT4 receptor were evaluated, on the basis of fluorescence values of the cleavage-products by beta-lactamase. […] Data were analyzed on the basis of the ratio of fluorescence intensities of each well at the respective wavelengths. […]
pEC50: −log10 of the molar value.
measurement-label: pEC50

{"molecule": "CCCc1cc(N2CCCC(NC(C)=O)C2)nc(Nc2ccc(N)c([N+](=O)[O-])c2)n1 (centres unmarked)", "recorded-value": 11.47}
{"molecule": "CCCCCN[C@H]1CCCN(c2cc(CCC)nc(Nc3ccc(C)c(C#N)c3)n2)C1", "recorded-value": 10.03}
{"molecule": "CCCc1cc(N2CCC[C@@H](NC)C2)nc(Nc2cc(N)cc(C#N)c2)n1", "recorded-value": 11.36}
{"molecule": "CCCc1cc(N2CCC[C@@H](NCC)C2)nc(Nc2ccc(F)c(C#N)c2)n1", "recorded-value": 10.59}

P: CCCN[C@@H]1CCCN(c2cc(CCC)nc(Nc3ccc(F)c(C#N)c3)n2)C1
Q: CCCc1cc(N2CCCC3CCCCC32)nc(Nc2ccc3[nH]c(C(F)(F)F)nc3c2)n1 (centres unmarked)
R: CCCCc1cc(N2CCC[C@@H](NC)C2)nc(Nc2cc(N)cc(C(F)(F)F)c2)n1
S: CCCc1cc(N2CCC[C@@H](NCC3CC3)C2)nc(Nc2cccc(C#N)c2)n1
List these items ordered by pEC50, big to small. # the answer lists labels in the order requested
R, P, S, Q

---

- measured-on: human 5-HT4(a) (Homo sapiens)
- Construct: host or cells: GeneBIAzer HTR4-CRE-bla CHO-K1 cells
- experiment-summary: Evaluation of agonistic activity in CHO-K1 cells expressing human 5-HT4(a) (GeneBIAzer HTR4-CRE-bla CHO-K1 cells, beta-lactamase fluorescence ratio, EC50 from 8 concentrations)
- Assay type: cell-based
pEC50: −log10 of the molar value.
measurement-label: pEC50

Worked cases, answers included:
{"molecule": "CCCc1cc(N2CCC[C@@H](NC(C)=O)C2)nc(Nc2cccc(C#N)c2)n1", "pEC50": 10.34}
{"molecule": "CCCc1cc(N2CCNC[C@H]2C)nc(Nc2ccc3cc[nH]c3c2)n1", "pEC50": 10.62}
{"molecule": "CCCCc1cc(N2CCC[C@@H](NC(C)=O)C2)nc(Nc2ccc(C)c(C#N)c2)n1", "pEC50": 11.07}
{"molecule": "CCCc1cc(N2CCCCC2CCO)nc(Nc2ccc(F)c([N+](=O)[O-])c2)n1 (centres unmarked)", "pEC50": 9.52}
{"molecule": "CCCc1cc(N2CCC[C@@H](NC(=O)CO)C2)nc(Nc2cccc(C#N)c2)n1", "pEC50": 10.33}

1: CCCc1cc(N2CCCCC2CCO)nc(Nc2ccc(Cl)c(N)c2)n1 (centres unmarked)
2: CCCCc1cc(N2CCCCC2CCO)nc(Nc2ccc(F)cc2)n1 (centres unmarked)
3: CCCc1cc(N2CCC[C@H](NCCCSC)C2)nc(Nc2ccc(C)c(C#N)c2)n1
4: CCCc1cc(N2CCCC3CCCCC32)nc(Nc2ccc(Cl)c([N+](=O)[O-])c2)n1 (centres unmarked)
Hey, quick one: sort these by pEC50, low to high? # the answer lists labels in the order requested
4, 2, 3, 1

a: CCCCc1cc(N2CCC[C@@H](N)C2)nc(Nc2ccc(C)c(N)c2)n1
b: CCCc1cc(N2CCNC[C@H]2C)nc(Nc2ccc(N)c(C(F)(F)F)c2)n1
c: CCCc1cc(N2CCC[C@@H](NCC3CC3)C2)nc(Nc2cc(N)cc(C#N)c2)n1
List these items ordered by pEC50, big to small. # the answer lists labels in the order requested
c, b, a
(c: 11.39, b: 10.55, a: 9.87)

---

- measured-on: human 5-HT4(a) (Homo sapiens)
- experiment-summary: Evaluation of agonistic activity in CHO-K1 cells expressing human 5-HT4(a) (GeneBIAzer HTR4-CRE-bla CHO-K1 cells, beta-lactamase fluorescence ratio, EC50 from 8 concentrations)
pEC50: −log10 of the molar value. Structures can show the parent of a compound that is named as a salt.
measurement-label: pEC50

Worked cases, answers included:
{"compound": "CCCc1cc(N2CCC[C@@H](N)C2)nc(Nc2ccc(C)c(C(F)(F)F)c2)n1", "recorded-value": 11.14}
{"compound": "CCCc1cc(N2CCNC[C@H]2C)nc(Nc2cccc([N+](=O)[O-])c2)n1", "recorded-value": 10.14}
{"compound": "CCCc1cc(N2CCC[C@@H](NC(=O)CO)C2)nc(Nc2ccc(C)c(N)c2)n1", "recorded-value": 10.03}
{"compound": "CCCCCN[C@@H]1CCCN(c2cc(CCCC)nc(Nc3ccc(C)c(C#N)c3)n2)C1", "recorded-value": 10.72}
{"compound": "CCCc1cc(N2CCCCC2CC)nc(Nc2cc(OC)ccc2C)n1 (stereo not shown)", "recorded-value": 9.43}

P: CCCCc1cc(N2CCC[C@@H](NCC)C2)nc(Nc2ccc(C)c(C#N)c2)n1
Q: CCCc1cc(N2CCCC(NCC)C2)nc(Nc2ccc(C)c(C#N)c2)n1 (stereo not shown) [Example 297, dihydrochloride]
Identify the item whose pEC50 is the smaller number: P or Q The response must carry the label of the picked entry.
P
(P: 11.40, Q: 11.62)

---

- measured-on: human 5-HT4(a) (Homo sapiens, UniProt Q13639)
- experiment-summary: Evaluation of agonistic activity in CHO-K1 cells expressing human 5-HT4(a) (GeneBIAzer HTR4-CRE-bla CHO-K1 cells, beta-lactamase fluorescence ratio, EC50 from 8 concentrations)
measurement-label: EC50 (nM)

Worked cases, answers included:
{"molecule": "CCCCc1cc(N2CCC[C@@H](NCCC(C)C)C2)nc(Nc2ccc(C)c(C#N)c2)n1 [Example 303]", "EC50 [nM]": 0.025}
{"molecule": "CCCc1cc(N2CCNC[C@H]2C)nc(Nc2cccc(C(F)(F)F)c2)n1 [Example 119]", "EC50 [nM]": 0.156}

A: CCCc1cc(N2CCCC3CCCCC32)nc(Nc2cccc([N+](=O)[O-])c2)n1 (stereo not shown) [Example 188]
B: CCCCN[C@@H]1CCCN(c2cc(CCC)nc(Nc3ccc(C)c(C#N)c3)n2)C1 [Example 207]
Identify the item whose EC50 is the smaller number: A or B The response must carry the label of the picked entry.
B

---

- measured-on: human 5-HT4(a) (Homo sapiens, UniProt Q13639)
- experiment-summary: Evaluation of agonistic activity in CHO-K1 cells expressing human 5-HT4(a) (GeneBIAzer HTR4-CRE-bla CHO-K1 cells, beta-lactamase fluorescence ratio, EC50 from 8 concentrations)
pEC50: −log10 of the molar value. Counter-ions that a name gives are not always drawn.
measurement-label: pEC50

Worked cases, answers included:
{"compound": "CCCCc1cc(N2CCCC(NC(C)=O)C2)nc(Nc2ccc(C)c(C#N)c2)n1 (centres unmarked) [Example 298, hydrochloride]", "measurement-label": "pEC50", "recorded-value": 10.92}
{"compound": "CCCc1cc(N2CCC[C@H](NCc3ccc[nH]3)C2)nc(Nc2ccc(C)c(C#N)c2)n1", "measurement-label": "pEC50", "recorded-value": 10.34}
{"compound": "CCCc1cc(N2CCC[C@H](N(CC)CC)C2)nc(Nc2ccc(C)c(C#N)c2)n1", "measurement-label": "pEC50", "recorded-value": 9.73}

I: CCCc1cc(N2CCC[C@@H](NCCC(C)C)C2)nc(Nc2ccc(C)c(C#N)c2)n1
II: CCCCc1cc(N2CCC[C@@H](NC)C2)nc(Nc2ccc(N)c([N+](=O)[O-])c2)n1 [Example 328, dihydrochloride]
Identify the item whose pEC50 is the smaller number: I or II The response must carry the label of the picked entry.
I
(I: 10.66, II: 11.54)
